# test_target: T1, human GARP-proTGFβ1 complex (human, UniProt P01137 30-390; Q14392 20-627)
# T1 construct: also called hGARP-proTGFβ1; hGARP
# T1 sequence (P01137 30-390, chain 1 of 2): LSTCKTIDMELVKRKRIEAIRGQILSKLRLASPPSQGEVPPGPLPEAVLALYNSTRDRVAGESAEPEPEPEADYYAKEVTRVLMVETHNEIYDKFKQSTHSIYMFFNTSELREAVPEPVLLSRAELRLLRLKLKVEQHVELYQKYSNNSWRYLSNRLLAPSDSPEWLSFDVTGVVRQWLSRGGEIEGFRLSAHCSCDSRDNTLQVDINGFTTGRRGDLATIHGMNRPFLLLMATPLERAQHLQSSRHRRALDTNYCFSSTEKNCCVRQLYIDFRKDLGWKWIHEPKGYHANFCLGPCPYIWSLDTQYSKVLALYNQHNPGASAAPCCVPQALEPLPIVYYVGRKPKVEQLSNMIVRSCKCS
# T1 sequence (Q14392 20-627, chain 2 of 2): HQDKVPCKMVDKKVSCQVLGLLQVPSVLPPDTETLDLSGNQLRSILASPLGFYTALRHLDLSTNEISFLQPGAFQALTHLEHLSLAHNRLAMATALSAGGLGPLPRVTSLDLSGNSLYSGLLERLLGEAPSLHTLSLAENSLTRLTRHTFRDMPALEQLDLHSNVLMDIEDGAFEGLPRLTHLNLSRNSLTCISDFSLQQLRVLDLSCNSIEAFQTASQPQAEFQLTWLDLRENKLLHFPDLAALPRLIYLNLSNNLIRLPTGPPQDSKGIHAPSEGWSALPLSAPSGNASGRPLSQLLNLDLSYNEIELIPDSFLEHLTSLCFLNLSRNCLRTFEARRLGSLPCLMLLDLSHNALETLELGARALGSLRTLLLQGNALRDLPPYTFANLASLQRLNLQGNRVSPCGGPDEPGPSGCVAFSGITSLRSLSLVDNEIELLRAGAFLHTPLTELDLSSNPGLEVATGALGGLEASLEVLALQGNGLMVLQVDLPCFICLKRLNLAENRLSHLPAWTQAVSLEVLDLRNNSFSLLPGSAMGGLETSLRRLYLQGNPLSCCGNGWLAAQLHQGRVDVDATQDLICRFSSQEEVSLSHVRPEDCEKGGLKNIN
# run_description: MSD-SET, hIgG4
Kindly state Kd for each of the entries shown.
Give bare numbers, in nM.

Please review the following examples before continuing.
The binder listed as Ab19 (antibody, IgG4, V domains shown) VH: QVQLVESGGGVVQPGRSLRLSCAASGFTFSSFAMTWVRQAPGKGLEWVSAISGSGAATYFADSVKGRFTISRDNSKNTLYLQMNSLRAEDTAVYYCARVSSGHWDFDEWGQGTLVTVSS VL: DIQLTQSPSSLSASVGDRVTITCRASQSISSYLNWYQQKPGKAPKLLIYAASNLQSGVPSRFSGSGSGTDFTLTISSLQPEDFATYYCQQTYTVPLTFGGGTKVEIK has a reported Kd of 3.8

The binder listed as Ab31 (antibody, IgG4, V domains shown) VH: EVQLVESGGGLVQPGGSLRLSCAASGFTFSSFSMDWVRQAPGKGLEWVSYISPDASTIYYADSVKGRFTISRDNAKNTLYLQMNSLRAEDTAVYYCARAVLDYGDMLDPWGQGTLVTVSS VL: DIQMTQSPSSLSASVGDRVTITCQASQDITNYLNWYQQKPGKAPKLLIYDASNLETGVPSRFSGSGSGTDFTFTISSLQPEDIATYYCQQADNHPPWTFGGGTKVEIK has a reported Kd of 0.019

Turning to the following binder.
The binder listed as Ab32 (antibody, IgG4, V domains shown) VH: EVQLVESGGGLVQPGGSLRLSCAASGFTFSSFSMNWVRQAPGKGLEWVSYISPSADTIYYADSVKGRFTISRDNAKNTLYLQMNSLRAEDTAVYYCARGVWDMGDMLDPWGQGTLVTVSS VL: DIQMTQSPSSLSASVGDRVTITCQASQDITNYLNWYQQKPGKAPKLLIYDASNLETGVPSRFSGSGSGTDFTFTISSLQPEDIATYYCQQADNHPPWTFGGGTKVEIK has a reported Kd of 0.015
